Experiment: in vivo
Conditions: rat, sc
observed.property: LD50

- C(=NNc1ccccn1)c1ccccn1 [PH 22, pyridine-2-aldehyde-2'-pyridylhydrazone]: > 2000 mg/kg
